MIC values by entry
System: Pseudomonas aeruginosa
method summary: Antibacterial activity against Pseudomonas aeruginosa ATCC 27853 assessed as inhibition of bacterial growth measured after 18 hrs by resazurin dye based analysis
Format: functional

Example results:
>  <structure string>
C[C@]1(C(=O)NCCCNCCCCCCCN)CCC[C@]2(C)c3cc(O)ccc3CC[C@@H]12.O=C(O)C(F)(F)F.O=C(O)C(F)(F)F

>  <MIC>
> 47.6 µM

$$$$
>  <structure string>
COC(=O)[C@@]1(C)CCC[C@]2(C)c3cc(OC(=O)CCCNCCCCCCNCCCNC(=O)Oc4ccc5c(c4)[C@@]4(C)CCC[C@](C)(C(=O)OC)[C@@H]4CC5)ccc3CC[C@@H]12.O=C(O)C(F)(F)F.O=C(O)C(F)(F)F

>  <MIC>
> 29.4 µM

$$$$
>  <structure string>
C[C@]1(C(=O)O)CCC[C@]2(C)c3cc(OC(=O)NCCCNCCCCCCCCN)ccc3CC[C@@H]12.O=C(O)C(F)(F)F.O=C(O)C(F)(F)F

>  <MIC>
> 43.8 µM

$$$$
>  <structure string>
C[C@]1(C(=O)NCCCNCCCCCCCNCCCNC(=O)[C@@]2(C)CCC[C@]3(C)c4cc(O)ccc4CC[C@@H]23)CCC[C@]2(C)c3cc(O)ccc3CC[C@@H]12.O=C(O)C(F)(F)F.O=C(O)C(F)(F)F

>  <MIC>
> 32.5 µM

$$$$
>  <structure string>
C[C@]1(C(=O)NCCCNCCCCCCCN)CCC[C@]2(C)c3cc(OC(=O)NCCCNCCCCCCCN)ccc3CC[C@@H]12.O=C(O)C(F)(F)F.O=C(O)C(F)(F)F.O=C(O)C(F)(F)F.O=C(O)C(F)(F)F

>  <MIC>
> 29.7 µM

$$$$

Report its MIC with Pseudomonas aeruginosa as the test system: `C[C@]1(C(=O)O)CCC[C@]2(C)c3cc(OC(=O)CCCNCCCCCCCNCCCNC(=O)Oc4ccc5c(c4)[C@@]4(C)CCC[C@](C)(C(=O)O)[C@@H]4CC5)ccc3CC[C@@H]12.O=C(O)C(F)(F)F.O=C(O)C(F)(F)F`
> 29.8 µM

Report its MIC with Pseudomonas aeruginosa as the test system: `COC(=O)[C@@]1(C)CCC[C@]2(C)c3cc(OC(=O)CCCNCCCCCCCNCCCNC(=O)Oc4ccc5c(c4)[C@@]4(C)CCC[C@](C)(C(=O)OC)[C@@H]4CC5)ccc3CC[C@@H]12.O=C(O)C(F)(F)F.O=C(O)C(F)(F)F`
> 29.1 µM

Report its MIC with Pseudomonas aeruginosa as the test system: `CCCCCNC(=O)[C@@]1(C)CCC[C@]2(C)c3cc(OC(=O)CCCNCCCCCCCCCCNCCCNC(=O)Oc4ccc5c(c4)[C@@]4(C)CCC[C@](C)(C(=O)NCCCCC)[C@@H]4CC5)ccc3CC[C@@H]12.O=C(O)C(F)(F)F.O=C(O)C(F)(F)F`
> 25.5 µM

Report its MIC with Pseudomonas aeruginosa as the test system: `CCCCCNC(=O)[C@@]1(C)CCC[C@]2(C)c3cc(OC(=O)CCCNCCCCCCCCCCCCNCCCNC(=O)Oc4ccc5c(c4)[C@@]4(C)CCC[C@](C)(C(=O)NCCCCC)[C@@H]4CC5)ccc3CC[C@@H]12.O=C(O)C(F)(F)F.O=C(O)C(F)(F)F`
> 25 µM

Report its MIC with Pseudomonas aeruginosa as the test system: `C[C@]1(C(=O)O)CCC[C@]2(C)c3cc(OC(=O)NCCCNCCCCCCCCCCCCN)ccc3CC[C@@H]12.O=C(O)C(F)(F)F.O=C(O)C(F)(F)F`
> 32.8 µM

Report its MIC with Pseudomonas aeruginosa as the test system: `C[C@]1(C(=O)NCCCNCCCCCCCCCCN)CCC[C@]2(C)c3cc(OC(=O)NCCCNCCCCCCCCCCN)ccc3CC[C@@H]12.O=C(O)C(F)(F)F.O=C(O)C(F)(F)F.O=C(O)C(F)(F)F.O=C(O)C(F)(F)F`
> 26.7 µM

This collection of values is drawn from ChEMBL document CHEMBL5143685.
